- Test system: Capan-1
- METHOD DESCRIPTION: Proliferation assay (CellTiter Glo)
- Format: cell-based
- CONDITION SET: Capan-1 (K-RAS: G12V); absolute EC50; 96 hours; read-out: Ab EC50
- Protocol: The dose range for most compounds was 4.6 nM-30 μM. The dose ranges for some compounds were adjusted downward to 0.46 nM-3 μM or 0.08 nM-0.5 μM or 0.03 nM-0.2 μM. […] The results are shown in Tables 3-6 for pancreatic cancer, lung cancer, colon/gastric cancer, and leukemia.
RECORDED METRIC: EC50

Looking up CC(=O)OC12CC(C)C3(O)C(C=C(CO)CC4(O)C(O)C(C)=CC43)C1C2(C)C (stereo not drawn) [Compound K101C] , I found its EC50 recorded as > 30 µM

EC50 measured on CC(=O)OCC1=CC2C3C(C)(C)C3(OC(C)=O)CC(C)C2(O)C2C=C(C)C(=O)C2(O)C1 (stereo not drawn) [Compound K101E] = > 30 µM

Entry CC(=O)OC12CC(C)C3(O)C(C4OC4(CO)CC4(O)C(O)C(C)=CC43)C1C2(C)C (stereo not drawn) [Compound K101D] — recorded EC50 = > 30 µM
